Overview of reported % dead target cells, flow cytometry, 48h, K562-mouse GPC3 across a group of binders:
tested.system: mouse GPC3 overexpressed on K562 cells (mouse) (UniProt Q8CFZ4)
Sequence (Q8CFZ4 25-579): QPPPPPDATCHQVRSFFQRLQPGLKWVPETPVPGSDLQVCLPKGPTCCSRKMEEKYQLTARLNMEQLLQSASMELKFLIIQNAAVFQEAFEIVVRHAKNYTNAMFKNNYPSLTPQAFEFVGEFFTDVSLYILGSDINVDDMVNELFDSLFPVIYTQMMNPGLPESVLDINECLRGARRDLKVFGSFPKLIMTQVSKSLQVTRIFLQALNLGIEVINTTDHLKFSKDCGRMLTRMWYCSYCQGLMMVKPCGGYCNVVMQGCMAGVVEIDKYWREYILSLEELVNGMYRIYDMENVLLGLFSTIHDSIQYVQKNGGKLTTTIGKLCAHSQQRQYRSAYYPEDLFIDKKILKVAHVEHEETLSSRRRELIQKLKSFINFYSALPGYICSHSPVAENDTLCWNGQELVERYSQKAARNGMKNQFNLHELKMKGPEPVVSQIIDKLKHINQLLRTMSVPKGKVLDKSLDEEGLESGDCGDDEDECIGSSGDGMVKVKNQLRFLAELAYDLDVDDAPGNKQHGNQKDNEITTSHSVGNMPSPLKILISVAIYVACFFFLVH
test.summary: cell-based or functional assay
Numbers only here, please. The scale is %.

Worked cases, answers included:
• hmAb1-1 CAR (protein, part only; not given: hinge, transmembrane and signaling domains, part only) chain, part: QVQLVQSGAEVKKPGASVKVSCKTSGYTFTDYYIHWVRQAPGQGLEWMGEIYPGSGNTYYAQKFQGRVTMTADTSTSTAYMELSSLRSEDTAVYYCARGNDYDAWFVYWGQGTLVTVSSGSTSGSGKPGSGEGSTKGDIVMTQSPDSLAVSLGERVTMNCKSSQSLLNSGTRKNYLAWYQQKPGQPPKLLIYWASIRESGVPDRFSGSGSGTDFTLTISSVQAEDVAVYYCKQSYSLYTFGQGTKLEIK = 53.9
• hmAb1-3 CAR (protein, part only; not given: hinge, transmembrane and signaling domains, part only) chain, part: QVQLVQSGAEVKKPGASVKVSCKTSGYTFTDYYIHWVRQAPGQGLEWMGEIYPGSGNTYYAQKFQGRVTMTADTSTSTAYMELSSLRSEDTAVYYCARGNDYDAWFVYWGQGTLVTVSSGSTSGSGKPGSGEGSTKGDIVMTQSPDSLAVSLGERATINCKSSQSLLNSGTRKNYLAWYQQKPGQPPKLLIYWASIRESGVPDRFSGSGSGTDFTLTISSLQAEDVAVYYCKQSYSLYTFGQGTKLEIK = 50.5
• hmAb1-5 CAR (protein, part only; not given: hinge, transmembrane and signaling domains, part only) chain, part: QVQLVQSGAEVKKPGASVKVSCKTSGYTFTDYYIHWVRQAPGQGLEWIGEIYPGSGNTYYAQKFQGRATLTADTSTSTAYMEFSSLRSEDTAVYYCARGNDYDAWFVYWGQGTLVTVSSGSTSGSGKPGSGEGSTKGDIVMTQSPDSLAVSLGERVTMNCKSSQSLLNSGTRKNYLAWYQQKPGQPPKLLIYWASIRESGVPDRFSGSGSGTDFTLTISSVQAEDVAVYYCKQSYSLYTFGQGTKLEIK = 52.9

Qu. Requested field: % dead target cells, flow cytometry, 48h, K562-mouse GPC3. Item: hmAb1-2 CAR (protein, part only; not given: hinge, transmembrane and signaling domains, part only) chain, part: QVQLVQSGAEVKKPGASVKVSCKASGYTFTDYYIHWVRQAPGQGLEWMGEIYPGSGNTYYAQKFQGRVTMTRDTSTSTVYMELSSLRSEDTAVYYCARGNDYDAWFVYWGQGTLVTVSSGSTSGSGKPGSGEGSTKGDIVMTQSPDSLAVSLGERATINCKSSQSLLNSGTRKNYLAWYQQKPGQPPKLLIYWASIRESGVPDRFSGSGSGTDFTLTISSLQAEDVAVYYCKQSYSLYTFGQGTKLEIK
Ans. 48.3
